Assay: Cytotoxicity against human MM1.R cells assessed as reduction in cell vitality incubated for 24 hrs by MTT assay
Assay type: functional, cell-based
Settings: MM.1R
Readout Label: pEC50
The scale used: pEC50 is minus the common logarithm of the concentration in molar units.

Using the record for CC(C)CCNC(=O)Cn1ccc2ccc(Br)cc2c1=O , state its measured pEC50.
4.75

---

Measured pKi accompanies every entry in the list below.
Assay: Inhibition of 20S immuno proteosome beta5i subunit (unknown origin) assessed as substrate hydrolysis using Suc-Leu-Leu-Val-Tyr-AMC as fluorogenic substrate at 100 uM
Set-up: species or system Homo sapiens
The scale used: pKi is minus the common logarithm of the concentration in molar units.

Recorded results for 6 compounds are shown here.
COc1cc2ccn(C/C=C/C(=O)NCCC(C)C)c(=O)c2cc1OC : 5.72
COc1cc2ccn(C/C=C/C(=O)NCc3ccccc3)c(=O)c2cc1OC : 4.19
CCCCNC(=O)/C=C/Cn1ccc2cc(OC)c(OC)cc2c1=O : 4.31
COc1cc2ccn(C/C=C/C(=O)NCCCc3ccccc3)c(=O)c2cc1OC : 4.19
COc1cc2ccn(C/C=C/C(=O)NC3CCCCC3)c(=O)c2cc1OC : 4.26
COc1cc2ccn(C/C=C/C(=O)Nc3ccccc3)c(=O)c2cc1OC : 4.30

In the following, a different compound is considered.
Using the record for COc1cc2ccn(C/C=C/C(=O)NCCc3ccccc3)c(=O)c2cc1OC , state its measured pKi.
4.35
